All figures here come from the kinase profiling compilation of Christmann-Franck et al. (2016).

# MEASUREMENT TARGET: RPS6KA5 KD2 (human) (UniProt O75582)
# Sequence (O75582 whole entry, looked up): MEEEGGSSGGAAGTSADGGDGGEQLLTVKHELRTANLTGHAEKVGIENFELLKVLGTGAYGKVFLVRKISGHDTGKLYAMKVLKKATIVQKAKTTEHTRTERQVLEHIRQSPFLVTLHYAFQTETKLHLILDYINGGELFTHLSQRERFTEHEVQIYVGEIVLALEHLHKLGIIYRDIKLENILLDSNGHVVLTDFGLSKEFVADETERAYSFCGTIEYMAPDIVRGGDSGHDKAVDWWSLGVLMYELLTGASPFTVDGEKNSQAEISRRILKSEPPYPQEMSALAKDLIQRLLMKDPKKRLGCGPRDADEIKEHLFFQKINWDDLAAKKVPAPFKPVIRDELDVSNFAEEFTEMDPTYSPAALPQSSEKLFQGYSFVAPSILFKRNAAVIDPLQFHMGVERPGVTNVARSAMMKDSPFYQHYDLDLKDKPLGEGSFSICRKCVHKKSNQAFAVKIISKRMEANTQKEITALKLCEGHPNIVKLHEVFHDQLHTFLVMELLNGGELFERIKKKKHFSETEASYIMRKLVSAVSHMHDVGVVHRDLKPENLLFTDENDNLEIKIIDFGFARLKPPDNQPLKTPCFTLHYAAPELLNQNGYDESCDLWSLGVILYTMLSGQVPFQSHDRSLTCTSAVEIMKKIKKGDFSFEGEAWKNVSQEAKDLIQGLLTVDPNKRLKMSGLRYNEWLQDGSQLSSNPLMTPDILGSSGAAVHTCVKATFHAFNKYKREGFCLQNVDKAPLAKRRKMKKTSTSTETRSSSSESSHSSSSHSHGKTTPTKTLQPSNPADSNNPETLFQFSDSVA
# PROTOCOL DETAILS: KINOMEscan competition binding
# SETTINGS: compound 10.0 µM
MEASUREMENT KIND: kinase still bound, per cent of control (%)
Write down the numeric answer in % and omit the unit.

{"columns": ["SMILES INPUT", "kinase still bound, per cent of control, %"],
 "data": [
  ["C=CC(=O)Nc1cccc(Nc2nc(N[C@H]3CC[C@H](N(C)C)CC3)nc3c2ncn3C(C)C)c1", 95],
  ["N#Cc1c(NC(=O)c2cccc3ccccc23)sc2c1CCCC2", 95],
  ["Cc1ccc2nc(NCCN)c3ncc(C)n3c2c1", 85],
  ["Cc1cc([C@@H](C)Nc2ccccc2C(=O)O)c2nc(N3CCOCC3)cc(=O)n2c1", 91]
]}

Shift focus to the following entry.
Query string: Query: kinase still bound, per cent of control; subject: "O=C(O)c1ccc(Nc2ncc3c(n2)-c2ccc(Cl)cc2C(c2c(F)cccc2F)=NC3)cc1"
Result string: 74
